Molecular target: D4 (Homo sapiens)
Construct: expressed in transfected cells; host or cells: CHO or murine mesencephalic neuronal NM9D (sic)
Sequence (P21917 1-419): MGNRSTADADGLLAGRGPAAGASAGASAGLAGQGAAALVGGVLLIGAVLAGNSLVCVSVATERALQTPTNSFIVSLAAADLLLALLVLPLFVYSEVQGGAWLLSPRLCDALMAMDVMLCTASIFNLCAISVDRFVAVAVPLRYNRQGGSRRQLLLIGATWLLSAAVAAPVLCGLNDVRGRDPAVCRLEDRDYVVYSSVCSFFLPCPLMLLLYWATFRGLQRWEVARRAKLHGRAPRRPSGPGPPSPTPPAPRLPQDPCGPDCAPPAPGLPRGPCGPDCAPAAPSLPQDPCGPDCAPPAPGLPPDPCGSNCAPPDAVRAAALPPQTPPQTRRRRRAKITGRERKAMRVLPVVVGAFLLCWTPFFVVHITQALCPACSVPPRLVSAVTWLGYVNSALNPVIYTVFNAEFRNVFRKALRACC
Experiment: Binding to dopaminergic receptors in cell cultures, displacement of [3H]-spiperone, D4
Conditions: CHO or NM9D cell membranes; [3H]-spiperone 0.2 nM; non specific (+)-butaclamol 1 μM; Cheng and Prusoff; read-out: Receptor binding (Ki nM) D4
Counter-ions that a name gives are not always drawn.
measurement kind: Ki

Ask | Consider the molecule CCCN(CCCCCCNCCc1ccc(S(C)(=O)=O)cc1)[C@H]1CCc2c(ccc3sc(=O)[nH]c23)C1 [Compound 2, dihydrochloride] and give its recorded Ki.
Reply | > 10000 nM

---

Target: D3 (Homo sapiens, UniProt P35462)
Construct: expressed in transfected cells; host or cells: CHO or murine mesencephalic neuronal NM9D (sic)
Sequence (P35462 whole entry): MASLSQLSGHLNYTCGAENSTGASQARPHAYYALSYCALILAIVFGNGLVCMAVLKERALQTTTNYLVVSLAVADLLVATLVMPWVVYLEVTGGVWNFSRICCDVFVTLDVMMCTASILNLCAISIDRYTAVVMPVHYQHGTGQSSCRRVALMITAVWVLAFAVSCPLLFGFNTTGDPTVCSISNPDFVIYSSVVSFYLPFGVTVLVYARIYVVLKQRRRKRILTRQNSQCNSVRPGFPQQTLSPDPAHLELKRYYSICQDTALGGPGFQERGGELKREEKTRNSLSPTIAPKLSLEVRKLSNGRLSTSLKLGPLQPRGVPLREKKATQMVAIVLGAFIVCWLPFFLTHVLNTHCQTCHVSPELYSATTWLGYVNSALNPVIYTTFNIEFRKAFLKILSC
Assay: Binding to dopaminergic receptors in cell cultures, displacement of [3H]-spiperone, D3
Conditions: CHO or NM9D cell membranes; [3H]-spiperone 0.3 nM; non specific (+)-butaclamol 1 μM; Cheng and Prusoff; read-out: Receptor binding (Ki nM) D3
Structures can show the parent of a compound that is named as a salt.
measurement kind: Ki (nM)
Lab book: enter the figure in nM, no units written.

Ask | Answer with Ki of CCCN(CCCCCCNCCc1ccc(S(C)(=O)=O)cc1)[C@H]1CCc2c(ccc3sc(=O)[nH]c23)C1 [Compound 2, dihydrochloride] measured for D3 (Homo sapiens, UniProt P35462).
Reply | 92

---

Target: D2s (Homo sapiens)
Construct: expressed in transfected cells; host or cells: CHO or murine mesencephalic neuronal NM9D (sic)
Sequence (P14416 1-414 isoform P14416-2): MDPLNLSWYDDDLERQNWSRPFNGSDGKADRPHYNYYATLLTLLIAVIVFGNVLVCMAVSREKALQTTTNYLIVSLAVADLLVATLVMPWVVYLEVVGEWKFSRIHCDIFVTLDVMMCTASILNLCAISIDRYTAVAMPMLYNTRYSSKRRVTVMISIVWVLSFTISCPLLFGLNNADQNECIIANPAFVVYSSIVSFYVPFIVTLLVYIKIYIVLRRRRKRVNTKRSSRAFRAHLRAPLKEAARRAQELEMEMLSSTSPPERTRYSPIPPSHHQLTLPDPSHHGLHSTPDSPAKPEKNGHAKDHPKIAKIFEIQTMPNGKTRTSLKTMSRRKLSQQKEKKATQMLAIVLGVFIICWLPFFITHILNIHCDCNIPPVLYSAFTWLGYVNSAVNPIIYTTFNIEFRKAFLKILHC
Experiment: Binding to dopaminergic receptors in cell cultures, displacement of [3H]-spiperone, D2s
Conditions: CHO or NM9D cell membranes; [3H]-spiperone 0.1 nM; non specific (+)-butaclamol 1 μM; Cheng and Prusoff; read-out: Receptor binding (Ki nM) D2s
Structures can show the parent of a compound that is named as a salt.
measurement kind: Ki

Ask | Consider the compound CCCN(CCCCCCNCCc1ccc(S(C)(=O)=O)cc1)[C@H]1CCc2c(ccc3sc(=O)[nH]c23)C1 [Compound 2, dihydrochloride] and give its recorded Ki.
Reply | 9440 nM

---

Molecular target: D5 (Homo sapiens, UniProt P21918)
Construct: expressed in transfected cells; host or cells: CHO or murine mesencephalic neuronal NM9D (sic)
Sequence (P21918 whole entry): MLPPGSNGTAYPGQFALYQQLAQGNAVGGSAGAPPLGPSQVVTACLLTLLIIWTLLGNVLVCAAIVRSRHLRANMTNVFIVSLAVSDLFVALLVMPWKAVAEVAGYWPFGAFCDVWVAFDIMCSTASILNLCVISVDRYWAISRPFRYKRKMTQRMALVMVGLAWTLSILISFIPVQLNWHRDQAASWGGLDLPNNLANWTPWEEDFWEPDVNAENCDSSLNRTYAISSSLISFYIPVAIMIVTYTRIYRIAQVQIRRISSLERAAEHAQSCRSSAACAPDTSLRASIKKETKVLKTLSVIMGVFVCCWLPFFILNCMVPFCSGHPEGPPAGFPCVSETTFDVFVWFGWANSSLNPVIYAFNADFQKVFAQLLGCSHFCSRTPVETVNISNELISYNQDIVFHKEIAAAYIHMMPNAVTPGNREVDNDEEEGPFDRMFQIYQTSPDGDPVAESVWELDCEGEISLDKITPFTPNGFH
Assay: Binding to dopaminergic receptors in cell cultures, displacement of [3H]-SCH23390, D5
Conditions: CHO or NM9D cell membranes; [3H]-SCH23390 0.2 nM; non specific (-)cis-flupenthixol 1 μM; Cheng and Prusoff; read-out: Receptor binding (Ki nM) D5
Structures can show the parent of a compound that is named as a salt.
measurement kind: Ki (nM)
Lab book: enter the figure in nM, no units written.

Ask | Consider the molecule CCCN(CCCCCCNCCc1ccc(S(C)(=O)=O)cc1)[C@H]1CCc2c(ccc3sc(=O)[nH]c23)C1 [Compound 2, dihydrochloride] and give its recorded Ki.
Reply | 9270
